conditions: in 2-butanone, 305.65 K

>  <MOL>
S=c1[nH]c2ccccc2s1

>  <solubility (mole fraction)>
0.11

$$$$

---

settings: in toluene, 293.15 K

>  <MOL>
S=c1[nH]c2ccccc2s1

>  <solubility (mole fraction)>
0.00333

$$$$

---

details: in n-propanol, 288.15 K

>  <MOL>
S=c1[nH]c2ccccc2s1

>  <solubility (mole fraction)>
0.0219

$$$$

---

conditions: in isopropanol, 313.15 K
EXPERIMENTAL ENDPOINT: solubility (mole fraction)

>  <MOL>
S=c1[nH]c2ccccc2s1

>  <EXPERIMENTAL ENDPOINT>
solubility (mole fraction)

>  <QUANTITATIVE READOUT>
0.0352

$$$$

These data points were gathered from BigSolDB 2.1.
